Target: EGFR mutant L858R (Homo sapiens, UniProt P00533, L858R)
Construct: truncated human JAK3, EGFR mutants such as del E746-A750; purchased Carna Biosciences
Sequence (P00533 669-1210 L858R limits assumed): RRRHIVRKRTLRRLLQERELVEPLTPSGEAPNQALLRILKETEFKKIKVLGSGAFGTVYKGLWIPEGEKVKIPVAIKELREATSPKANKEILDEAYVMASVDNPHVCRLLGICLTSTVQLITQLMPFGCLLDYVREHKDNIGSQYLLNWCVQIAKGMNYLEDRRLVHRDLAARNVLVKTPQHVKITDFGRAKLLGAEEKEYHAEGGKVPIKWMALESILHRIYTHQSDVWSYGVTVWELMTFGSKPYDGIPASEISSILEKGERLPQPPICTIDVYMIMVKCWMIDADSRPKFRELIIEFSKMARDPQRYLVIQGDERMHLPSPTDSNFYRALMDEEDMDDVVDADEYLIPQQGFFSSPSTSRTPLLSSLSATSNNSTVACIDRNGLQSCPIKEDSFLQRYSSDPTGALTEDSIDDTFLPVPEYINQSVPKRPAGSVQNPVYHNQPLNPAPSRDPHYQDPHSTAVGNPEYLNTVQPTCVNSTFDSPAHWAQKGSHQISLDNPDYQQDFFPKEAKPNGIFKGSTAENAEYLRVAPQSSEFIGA
Assay: Kinase inhibition assay, EGFR L858R;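 further: truncated human EGFR L858R kinase with compound preincubation, ULight-PolyGT peptide phosphorylation read by Europium-antibody Lance detection, IC50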
Assay type: biochemical
Conditions: read-out: EGFR mutants L858R
pIC50: −log10 of the molar value.
result_type: pIC50

Please review the entries below; each comes with its answer.
Request: I would be grateful if you could share the reported pIC50 for `C=CC(=O)Nc1cc(Nc2nccc(-n3cc(CN4CCCC4)c(-c4ccccc4)n3)n2)c(OC)cc1N1CCOCC1` .
Result: 6.70 to 7.70

Request: I would be grateful if you could share the reported pIC50 for `C=CC(=O)Nc1cc(Nc2nccc(-n3ccc(-c4ccccc4)n3)n2)c(OC)cc1N1CCN(C)CC1` .
Result: 6.70 to 7.70

Request: I would be grateful if you could share the reported pIC50 for CCC(=O)Nc1cc(Nc2nccc(-n3cc(CN4CCC4)c(-c4ccccc4)n3)n2)c(OC)cc1N1CCOCC1 [Compound 158, reference compound] .
Result: < 6.00

Others:
Request: I would be grateful if you could share the reported pIC50 for `C=CC(=O)Nc1cc(Nc2nccc(-n3cc(CN4CC[C@H](N(C)C)C4)cn3)n2)c(OC)cc1N1CCOCC1` .
Result: 6.00 to 6.70

Request: I would be grateful if you could share the reported pIC50 for `C=CC(=O)Nc1cc(Nc2nccc(-n3cc(CN(C)C)c(C4CC4)n3)n2)c(OC)cc1N1CCOCC1` .
Result: > 7.70

----------
// each record: one item and its IC50 for SYK (Homo sapiens)

Please review the entries below; each comes with its answer.
Request: IC50, test system SYK (Homo sapiens), entry `C=CC(=O)Nc1cc(Nc2nccc(-n3cc(CN(C)C)c(-c4ccccc4)n3)n2)c(OC)cc1N(C)C1COC1`
Result: > 1000 nM

Request: IC50, test system SYK (Homo sapiens), entry `C=CC(=O)Nc1cc(Nc2ncc(Cl)c(-n3cc(CN4CCC4)c(C)n3)n2)c(OC)cc1N1CCOCC1`
Result: > 1000 nM

Request: IC50, test system SYK (Homo sapiens), entry `C=CC(=O)Nc1cc(Nc2ncc(F)c(-n3cc(CN4C[C@H](O)[C@H](OC)C4)c(C)n3)n2)c(OC)cc1N1CCOCC1`
Result: > 1000 nM

Request: IC50, test system SYK (Homo sapiens), entry `C=CC(=O)Nc1cc(Nc2nccc(-n3cc(CN(C)C)c(C)n3)n2)c(OC)cc1N1CCN(CCF)CC1`
Result: 201 to 1000 nM

Request: IC50, test system SYK (Homo sapiens), entry `C=CC(=O)Nc1cc(Nc2nccc(-n3cc(CN(C)CC)c(C4CC4)n3)n2)c(OC)cc1N1CCOCC1`
Result: > 1000 nM

Others:
Request: IC50, test system SYK (Homo sapiens), entry `C=CC(=O)Nc1cc(Nc2nccc(-n3cc(CN4CCC4)c(C(C)(C)C)n3)n2)c(OC)cc1N1CCCC1`
Result: > 1000 nM

Request: IC50, test system SYK (Homo sapiens), entry `C=CC(=O)Nc1cc(Nc2nccc(-n3cc(CN(C)C)c(-c4ccoc4)n3)n2)c(OC)cc1N1CCOCC1`
Result: 201 to 1000 nM

Request: IC50, test system SYK (Homo sapiens), entry `C=CC(=O)Nc1cc(Nc2ncc(C)c(-n3cc(CN4CCC4)cn3)n2)c(OC)cc1N1CCN(C(C)=O)CC1`;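 further: purified full-length human SYK pre-incubated 30 min with compound, then ULight-TK peptide phosphorylation for 1 h, detected with Europium-labeled antibody in Lance buffer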
Result: 201 to 1000 nM
